# protocol text: Induction of hemolysis in human RBC incubated for 30 mins by absorbance based microplate reader analysis
# Type: toxicity, cell-based, Erythrocyte
# assay context: human red blood cells (erythrocytes)
value type: HC50 at 0.5 h
Answer with the value and then the unit.

Looking up C[C@@H]1[C@H](O)[C@@H](C)/C=C/C=C/C=C/C=C/C=C/C=C/C=C/[C@H](O[C@@H]2O[C@H](C)[C@@H](O)[C@H](N)[C@@H]2O)C[C@@H]2O[C@](O)(C[C@@H](O)C[C@@H](O)[C@H](O)CC[C@@H](O)C[C@@H](O)CC(=O)O[C@H]1C)C[C@H](O)[C@H]2C(=O)O [AMPHOTERICIN B] , I found its HC50 at 0.5 h recorded as 3.46 µg/mL

###

# Tested on: Candida albicans
# protocol text: Antifungal activity Candida albicans ATCC 10231 by two-fold dilution method
# Type: functional
Reported MIC values are given for each entry in this list.
Quick reminder: number only, in mg/L, skip the unit.

Reference set (3 entries):
CCCCCCCCCC(=O)Oc1cc(C)cc(C)c1C(C)(C)CC(=O)Oc1ncc(F)c(N)n1 :: 8
CCCCCCCCCCCC(=O)Oc1cc(C)cc(C)c1C(C)(C)CC(=O)Oc1ncc(F)c(N)n1 :: 8
Nc1nc(=O)[nH]cc1F :: 1

Looking up CCCCCCCCCCCCCCCCCC(=O)Oc1cc(C)cc(C)c1C(C)(C)CC(=O)Oc1ncc(F)c(N)n1 , I found its MIC recorded as 128

Looking up CCCCCCCCCCCCCC(=O)Oc1cc(C)cc(C)c1C(C)(C)CC(=O)Oc1ncc(F)c(N)n1 , I found its MIC recorded as 4

Looking up CCCCCCCC(=O)Oc1cc(C)cc(C)c1C(C)(C)CC(=O)Oc1ncc(F)c(N)n1 , I found its MIC recorded as 8

Looking up CCCCCCCCCCCCCCCC(=O)Oc1cc(C)cc(C)c1C(C)(C)CC(=O)Oc1ncc(F)c(N)n1 , I found its MIC recorded as 16

Looking up CC(=O)Oc1cc(C)cc(C)c1C(C)(C)CC(=O)Oc1ncc(F)c(N)n1 , I found its MIC recorded as 16

###

# Test system: Candida albicans
# protocol text: Antifungal activity Candida albicans ATCC 10231 at 512 ug/ml by two-fold dilution method
# Assay type: functional, organism-based
# assay context: dose 512.0 µg/ml
Active and inactive are the calls of the source. The rule behind the calls is not given here.
value type: Activity

Reference set (6 entries):
CCCCCCCCCCCCCCCCCC(=O)Oc1cc(C)cc(C)c1C(C)(C)CC(=O)NCCNc1ccc2c3c(cccc13)C(=O)N(CCCC)C2=O :: inactive
CCCCCCCCCCCCCCCC(=O)Oc1cc(C)cc(C)c1C(C)(C)CC(=O)NCCNc1ccc2c3c(cccc13)C(=O)N(CCCC)C2=O :: inactive
CCCCCCCCCCCC(=O)Oc1cc(C)cc(C)c1C(C)(C)CC(=O)NCCNc1ccc2c3c(cccc13)C(=O)N(CCCC)C2=O :: inactive
CCCCCCCCCCCCCC(=O)Oc1cc(C)cc(C)c1C(C)(C)CC(=O)NCCNc1ccc2c3c(cccc13)C(=O)N(CCCC)C2=O :: inactive
CCCCCCCCCC(=O)Oc1cc(C)cc(C)c1C(C)(C)CC(=O)NCCNc1ccc2c3c(cccc13)C(=O)N(CCCC)C2=O :: inactive
CCCCCCCC(=O)Oc1cc(C)cc(C)c1C(C)(C)CC(=O)NCCNc1ccc2c3c(cccc13)C(=O)N(CCCC)C2=O :: inactive

Next compound, Activity to be filled in.
Looking up CCCCN1C(=O)c2cccc3c(NCCNC(=O)CC(C)(C)c4c(C)cc(C)cc4OC(C)=O)ccc(c23)C1=O , I found its Activity recorded as inactive

###

# Tested on: Diutina rugosa
# protocol text: Antifungal activity Candida rugosa DSM 2031 by two-fold dilution method
# Type: functional
value type: MIC (µg/mL)
Quick reminder: number only, in µg/mL, skip the unit.

CCCCCCCCCC(=O)Oc1cc(C)cc(C)c1C(C)(C)CC(=O)Oc1ncc(F)c(N)n1 :: 16
CCCCCCCCCCCCCCCC(=O)Oc1cc(C)cc(C)c1C(C)(C)CC(=O)Oc1ncc(F)c(N)n1 :: 64
CC(=O)Oc1cc(C)cc(C)c1C(C)(C)CC(=O)Oc1ncc(F)c(N)n1 :: 32

Looking up CCCCCCCCCCCC(=O)Oc1cc(C)cc(C)c1C(C)(C)CC(=O)Oc1ncc(F)c(N)n1 , I found its MIC recorded as 16

Looking up CCCCCCCCCCCCCC(=O)Oc1cc(C)cc(C)c1C(C)(C)CC(=O)Oc1ncc(F)c(N)n1 , I found its MIC recorded as 16

Looking up CCCCCCCC(=O)Oc1cc(C)cc(C)c1C(C)(C)CC(=O)Oc1ncc(F)c(N)n1 , I found its MIC recorded as 16

Looking up Nc1nc(=O)[nH]cc1F [FLUCYTOSINE] , I found its MIC recorded as 2
